assay: Concentration in serum after oral administration to rats; settings: rat, 20 mg/kg

# compound, concentration at 5 h / ng/mL
measured = [
    ("COC(CN(C)c1ccc2nc3c4c5c6c(C)c(O)c4c(=O)c(c-3oc2c1)NC(=O)C(C)=CC=CC(C)C(O)C(C)C(O)C(C)C(OC(C)=O)C(C)C(OC)C=COC(C)(O6)C5=O)OC (stereo not drawn)", 1000),
    ("COC1C=COC2(C)Oc3c(C)c(O)c4c(=O)c(c5oc6cc(N7CCCCCC7)ccc6nc-5c4c3C2=O)NC(=O)C(C)=CC=CC(C)C(O)C(C)C(O)C(C)C(OC(C)=O)C1C (stereo not drawn)", 4900),
    ("COC1C=COC2(C)Oc3c(C)c(O)c4c(=O)c(c5oc6cc(N7CCCC(C)C7)ccc6nc-5c4c3C2=O)NC(=O)C(C)=CC=CC(C)C(O)C(C)C(O)C(C)C(OC(C)=O)C1C (stereo not drawn)", 5200),
]

----------
# concentration at 3 h listing for each entry below
assay: Concentration in serum after oral administration to rats; settings: rat, 20 mg/kg

# molecule, concentration at 3 h / ng/mL
data = [
    ("COC(CN(C)c1ccc2nc3c4c5c6c(C)c(O)c4c(=O)c(c-3oc2c1)NC(=O)C(C)=CC=CC(C)C(O)C(C)C(O)C(C)C(OC(C)=O)C(C)C(OC)C=COC(C)(O6)C5=O)OC (stereo not shown) [compound 11]", 3400),
    ("COC1C=COC2(C)Oc3c(C)c(O)c4c(=O)c(c5oc6cc(N7CCCC(C)(C)C7)ccc6nc-5c4c3C2=O)NC(=O)C(C)=CC=CC(C)C(O)C(C)C(O)C(C)C(OC(C)=O)C1C (stereo not shown) [compound 27]", 6400),
    ("CCN(CC)c1ccc2nc3c4c5c6c(C)c(O)c4c(=O)c(c-3oc2c1)NC(=O)C(C)=CC=CC(C)C(O)C(C)C(O)C(C)C(OC(C)=O)C(C)C(OC)C=COC(C)(O6)C5=O (stereo not shown) [compound 3]", 3300),
    ("COC1C=COC2(C)Oc3c(C)c(O)c4c(=O)c(c5oc6cc(N7CCCCC7)ccc6nc-5c4c3C2=O)NC(=O)C(C)=CC=CC(C)C(O)C(C)C(O)C(C)C(OC(C)=O)C1C (stereo not shown) [compound 19]", 12400),
]

----------
experiment: Concentration in serum after oral administration to rats; settings: rat, 20 mg/kg

# compound, concentration at 1 h [ng/mL]
measured = [
    ("CCN(C)c1ccc2nc3c4c5c6c(C)c(O)c4c(=O)c(c-3oc2c1)NC(=O)C(C)=CC=CC(C)C(O)C(C)C(O)C(C)C(OC(C)=O)C(C)C(OC)C=COC(C)(O6)C5=O (stereo not drawn) [compound 2]", 3000),
    ("COC1C=COC2(C)Oc3c(C)c(O)c4c(=O)c(c5oc6cc(N7CCCCC7)ccc6nc-5c4c3C2=O)NC(=O)C(C)=CC=CC(C)C(O)C(C)C(O)C(C)C(OC(C)=O)C1C (stereo not drawn) [compound 19]", 4900),
    ("COC(CN(C)c1ccc2nc3c4c5c6c(C)c(O)c4c(=O)c(c-3oc2c1)NC(=O)C(C)=CC=CC(C)C(O)C(C)C(O)C(C)C(OC(C)=O)C(C)C(OC)C=COC(C)(O6)C5=O)OC (stereo not drawn) [compound 11]", 2900),
]
